Attribution: ChEMBL document CHEMBL2150904

- Test system: Hepatitis B virus
- Protocol summary: Antiviral activity against Hepatitis B virus infected in human HepG2(2.2.15) cells assessed as inhibition of viral replication at 10 ug/mL
- Assay type: functional
Entries and their inhibition at 10 µg/mL
Give the value, in units of %, as a plain number.

// solved cases for inhibition at 10 µg/mL follow
> print(dat)
                              line.notation           assay.readout  readout.number
1  Cc1cn([C@H]2CC=C(C(=O)O)O2)c(=O)[nH]c1=O  inhibition at 10 µg/mL              61
2  [N-]=[N+]=N[C@H]1C[C@H](n2ccc(=O)[nH]c2=O)O[C@@H]1C(=O)O  inhibition at 10 µg/mL              50

For the record O=C(O)[C@@H]1CC[C@H](n2ccc(=O)[nH]c2=O)O1 , what value of inhibition at 10 µg/mL is listed for Hepatitis B virus?
0

For the record COC(=O)[C@@H]1CC[C@H](n2ccc(N)nc2=O)O1 , what value of inhibition at 10 µg/mL is listed for Hepatitis B virus?
63

----------
Entries and their inhibition at 10 µg/mL
- Tested on: Hepatitis B virus
- Protocol summary: Antiviral activity against Hepatitis B virus infected in human HepG2(2.2.15) cells assessed as inhibition of viral replication at 10 ug/mL
- Type: functional
Give the value, in units of %, as a plain number.

// solved cases for inhibition at 10 µg/mL follow
> print(dat)
                              line.notation       study.system  unit.tag  readout.number
1  N=c1ccn([C@H]2CC[C@@H](C(=O)O)O2)c(=O)[nH]1  Hepatitis B virus         %              60
2  CC(=O)O[C@H]1C[C@H](n2cc(F)c(=O)[nH]c2=O)O[C@@H]1C(=O)O  Hepatitis B virus         %               0
3  Cc1cn([C@H]2C=C[C@@H](C(=O)O)O2)c(=O)[nH]c1=O  Hepatitis B virus         %              58

So what does the record say about inhibition at 10 µg/mL for Cc1cn([C@H]2C[C@H](N=[N+]=[N-])[C@@H](C(=O)O)O2)c(=O)[nH]c1=O ?
50
